B1: HDV Ribozyme (parent)
chain: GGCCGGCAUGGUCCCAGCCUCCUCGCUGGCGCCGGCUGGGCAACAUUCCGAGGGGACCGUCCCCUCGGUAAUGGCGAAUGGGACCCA

Variants of: B1
Experiment: self-cleavage, relative activity (ratio to wild type); higher = more cleavage; co-transcriptional
What self-cleavage was measured for each of the following?
API note: the answer field is a bare number with no unit suffix.

Prompt: So what's the measured self-cleavage for this one? C36A C66U
Response: 0.134

Prompt: What do you have for U46A G80C ?
Response: 0.0831

Prompt: What do you have for G50U C57A ?
Response: 0.911

Prompt: What do you have for C30A G39C ?
Response: 0.157

Prompt: What do you have for C84U C85U ?
Response: 0.604

Prompt: What do you have for G2C A51G ?
Response: 0.0831

Prompt: What do you have for A45U A51C ?
Response: 0.796

Prompt: What do you have for U9G C84G ?
Response: 0.222

Prompt: What do you have for C24G A83U ?
Response: 0.141

Prompt: What do you have for C22A G76C ?
Response: 0.447

Prompt: What do you have for C63A G68A ?
Response: 0.801

Prompt: What do you have for G2C G34A ?
Response: 0.0504

Prompt: What do you have for G5C C15U ?
Response: 0.356
